Recorded pEC50 values for a group of molecules are listed next.
Tested on: HBV rcDNA in HepDE19 cells
testProtocol: HepDE19 assay with bDNA quantitation of HBV rcDNA
Type: cell-based, hepatitis B virus
conditionDescription: Hepatitis B virus, HepDE19, HepDE19 assay, inhibition of rcDNA formation, bDNA quantitation; read-out: DE-19bDNA EC50
// pEC50 is dimensionless: -log10 of concentration (M)

Worked cases, answers included:
1. CN(C(=O)c1cc2c(C(F)F)cc(F)cc2[nH]1)[C@@H]1COCc2[nH]c(=O)c3cc(F)c(F)cc3c21
8.00
2. CN(C(=O)c1cc2c(F)c(F)c(F)cc2[nH]1)[C@@H]1COCc2[nH]c(=O)c3cc(F)c(F)cc3c21
8.00
3. CN(C(=O)c1c[nH]c(=O)c(Br)c1)[C@@H]1COCc2[nH]c(=O)c3cc(F)c(F)cc3c21
4.80

So for `CN(C(=O)c1cc(F)c(Cl)c(F)c1)[C@@H]1COCc2[nH]c(=O)c3cc(F)c(F)cc3c21` , the logged pEC50 turned out to be 8.00

Each recorded value in this set is attributed to patent US20240228504A1.
